- EXPERIMENT NOTES: Biodistribution study in LNCaP tumor-bearing mice (Th227 counted in organs)
- Format: in vivo, SCID mice
- TEST PARAMETERS: 96 h; 1500 kBq/kg
MEASURED ENDPOINT: Th-227 in muscle (% ID Th-227/g organ)
Give your result in % ID Th-227/g organ as a bare value.

Prompt: State its Th-227 in muscle: O=C([O-])CN1CCN(CC(=O)[O-])CCN(CC(=O)NCc2ccc(C(=O)N[C@@H](Cc3ccc4ccccc4n3)C(=O)NCCCC[C@H](NC(=O)N[C@@H](CCC(=O)O)C(=O)O)C(=O)O)nc2)CCN(CC(=O)[O-])CC1.[227Th+4] [Example 34-B-227Th]
Response: 0.00

Prompt: Entry O=C([O-])CN1CCN(CC(=O)[O-])CCN(CC(=O)NCC2CCC(C(=O)NC(Cc3ccc4ccccc4c3)C(=O)NCCCCC(NC(=O)NC(CCC(=O)O)C(=O)O)C(=O)O)CC2)CCN(CC(=O)[O-])CC1.[227Th+4] (stereo not shown) [Example 1-B-227Th] needs its Th-227 in muscle filled in; supply it.
Response: 0.08

Prompt: Hello, please tell me recorded Th-227 in muscle for this one: Cc1cc(C(=O)NCCN(CCCN(CCNC(=O)c2cc(C)n(CC(=O)O)c(=O)c2[O-])CCNC(=O)c2cc(C)n(CC(=O)NCC3CCC(C(=O)NC(Cc4cnc5ccccc5c4)C(=O)NCCCCC(NC(=O)NC(CCC(=O)O)C(=O)O)C(=O)O)CC3)c(=O)c2[O-])CCNC(=O)c2cc(C)n(CC(=O)NCC3CCC(C(=O)NC(Cc4cnc5ccccc5c4)C(=O)NCCCCC(NC(=O)NC(CCC(=O)O)C(=O)O)C(=O)O)CC3)c(=O)c2[O-])c([O-])c(=O)n1CC(=O)O.[227Th+4] (stereo not shown) [Example 22-C dimer-227Th]
Response: 0.00

Prompt: Supply recorded Th-227 in muscle for O=C([O-])CN1CCN(CC(=O)[O-])CCN(CC(=O)NCC2CCC(C(=O)NC(Cc3ccc4ccccc4c3)C(=O)NCCCCC(NC(=O)NC(CCC(=O)O)C(=O)O)C(=O)O)CC2)CCN(CC(=O)[O-])CC1.[227Th+4] [Example 1-B-D-227Th] here.
Response: 0.00

* * *

- EXPERIMENT NOTES: Biodistribution study in LNCaP tumor-bearing mice (Th227 counted in organs)
- Type: in vivo, SCID mice
- TEST PARAMETERS: 4 hr; 1500 kBq/kg
Kindly supply the reported Th-227 in Liver values for the records listed here.
Could you give me the number in % ID Th-227/g organ? Just the number is fine.

Prompt: Give me measured Th-227 in Liver, please, for this compound: Cc1cc(C(=O)NCCN(CCCN(CCNC(=O)c2cc(C)n(CC(=O)O)c(=O)c2[O-])CCNC(=O)c2cc(C)n(CC(=O)NCC3CCC(C(=O)NC(Cc4cnc5ccccc5c4)C(=O)NCCCCC(NC(=O)NC(CCC(=O)O)C(=O)O)C(=O)O)CC3)c(=O)c2[O-])CCNC(=O)c2cc(C)n(CC(=O)NCC3CCC(C(=O)NC(Cc4cnc5ccccc5c4)C(=O)NCCCCC(NC(=O)NC(CCC(=O)O)C(=O)O)C(=O)O)CC3)c(=O)c2[O-])c([O-])c(=O)n1CC(=O)O.[227Th+4] (stereo not drawn) [Example 22-C dimer-227Th]
Response: 0.60

Prompt: For the compound O=C([O-])CN1CCN(CC(=O)[O-])CCN(CC(=O)NCc2ccc(C(=O)N[C@@H](Cc3ccc4ccccc4n3)C(=O)NCCCC[C@H](NC(=O)N[C@@H](CCC(=O)O)C(=O)O)C(=O)O)nc2)CCN(CC(=O)[O-])CC1.[227Th+4] [Example 34-B-227Th] , report Th-227 in Liver.
Response: 0.55

Prompt: Write down Th-227 in Liver measured for item O=C([O-])CN1CCN(CC(=O)[O-])CCN(CC(=O)NCC2CCC(C(=O)NC(Cc3ccc4ccccc4c3)C(=O)NCCCCC(NC(=O)NC(CCC(=O)O)C(=O)O)C(=O)O)CC2)CCN(CC(=O)[O-])CC1.[227Th+4] (stereo not drawn) [Example 1-B-227Th]
Response: 1.32
